molecular target: rat mGluR5 (Rattus norvegicus); assay: mGluR5 assay on HEK-expressing rat mGluR5 (fluorescent cell based Ca2+ mobilization); conditions: HEK-293 cells stably expressing rat mGluR5, no co-addition of glutamate; mean of at least three independent experiments in duplicate; read-out: Ca2+ Flux (mean EC50)
Sequence (P31424 21-1171 isoform P31424-2 limits assumed): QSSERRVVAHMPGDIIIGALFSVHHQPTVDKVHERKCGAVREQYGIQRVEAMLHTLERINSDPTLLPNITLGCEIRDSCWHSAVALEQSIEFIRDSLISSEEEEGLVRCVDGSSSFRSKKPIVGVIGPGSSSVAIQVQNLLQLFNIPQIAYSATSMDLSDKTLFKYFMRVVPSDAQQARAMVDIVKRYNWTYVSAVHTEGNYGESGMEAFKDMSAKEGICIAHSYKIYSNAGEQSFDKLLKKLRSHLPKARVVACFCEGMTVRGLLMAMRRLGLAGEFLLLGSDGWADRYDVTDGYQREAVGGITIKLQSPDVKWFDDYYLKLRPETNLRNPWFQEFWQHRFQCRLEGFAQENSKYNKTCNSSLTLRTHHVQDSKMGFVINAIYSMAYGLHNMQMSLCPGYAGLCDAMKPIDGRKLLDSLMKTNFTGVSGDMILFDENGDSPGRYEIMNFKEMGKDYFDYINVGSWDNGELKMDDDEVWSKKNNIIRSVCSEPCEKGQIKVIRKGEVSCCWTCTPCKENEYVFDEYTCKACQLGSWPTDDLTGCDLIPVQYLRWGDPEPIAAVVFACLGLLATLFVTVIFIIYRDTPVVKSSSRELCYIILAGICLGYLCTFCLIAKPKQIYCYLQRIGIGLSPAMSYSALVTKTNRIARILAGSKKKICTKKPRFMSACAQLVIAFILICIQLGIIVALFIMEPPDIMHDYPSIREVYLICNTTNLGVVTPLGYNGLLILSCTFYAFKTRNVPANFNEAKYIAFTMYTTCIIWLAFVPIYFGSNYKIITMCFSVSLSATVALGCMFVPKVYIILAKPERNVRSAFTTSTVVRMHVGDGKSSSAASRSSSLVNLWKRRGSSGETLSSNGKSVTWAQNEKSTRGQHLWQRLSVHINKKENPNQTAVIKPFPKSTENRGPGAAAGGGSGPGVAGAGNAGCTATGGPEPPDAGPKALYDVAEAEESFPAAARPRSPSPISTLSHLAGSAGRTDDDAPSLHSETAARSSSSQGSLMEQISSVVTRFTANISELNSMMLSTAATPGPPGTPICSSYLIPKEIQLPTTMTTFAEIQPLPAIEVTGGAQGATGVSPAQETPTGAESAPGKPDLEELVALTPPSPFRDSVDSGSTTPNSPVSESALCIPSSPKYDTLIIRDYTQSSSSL
pEC50: −log10 of the molar value.
Measured pEC50, listed per entry.

O=C(c1ccc(F)nc1)N1CCC[C@H](c2nc(-c3ccc(F)cc3F)co2)C1 [Example 15]    5.00 to 6.00
O=C(c1ccc(F)nc1)N1CCC[C@H](c2nc(-c3ccccc3F)co2)C1 [Example 12]    > 6.00
O=C(c1ccc(F)cc1)N1CCC[C@H](c2nc(-c3ccccn3)co2)C1 [Example 8]    > 6.00

Switching to the query record.
// lookup pEC50 for O=C(c1ccc(F)nc1)N1CCC[C@H](c2nc(-c3ccc(F)cc3)co2)C1 [Example 4] > 6.00

----------
target: mGluR5 (Rattus norvegicus, UniProt P31424); construct: positive allosteric modulators of mGluR5 receptors in native preparations; endogenous in cells; host or cells: primary cortical astrocytes from Sprague-Dawley rat embryos (E16-19); assay: mGluR5 binding assay ([3H]-MPEP, rat brain membranes); conditions: competition with 3 nM [3H]-MPEP, rat cortical membranes, 1 h at 4° C.
Sequence (P31424 21-1203): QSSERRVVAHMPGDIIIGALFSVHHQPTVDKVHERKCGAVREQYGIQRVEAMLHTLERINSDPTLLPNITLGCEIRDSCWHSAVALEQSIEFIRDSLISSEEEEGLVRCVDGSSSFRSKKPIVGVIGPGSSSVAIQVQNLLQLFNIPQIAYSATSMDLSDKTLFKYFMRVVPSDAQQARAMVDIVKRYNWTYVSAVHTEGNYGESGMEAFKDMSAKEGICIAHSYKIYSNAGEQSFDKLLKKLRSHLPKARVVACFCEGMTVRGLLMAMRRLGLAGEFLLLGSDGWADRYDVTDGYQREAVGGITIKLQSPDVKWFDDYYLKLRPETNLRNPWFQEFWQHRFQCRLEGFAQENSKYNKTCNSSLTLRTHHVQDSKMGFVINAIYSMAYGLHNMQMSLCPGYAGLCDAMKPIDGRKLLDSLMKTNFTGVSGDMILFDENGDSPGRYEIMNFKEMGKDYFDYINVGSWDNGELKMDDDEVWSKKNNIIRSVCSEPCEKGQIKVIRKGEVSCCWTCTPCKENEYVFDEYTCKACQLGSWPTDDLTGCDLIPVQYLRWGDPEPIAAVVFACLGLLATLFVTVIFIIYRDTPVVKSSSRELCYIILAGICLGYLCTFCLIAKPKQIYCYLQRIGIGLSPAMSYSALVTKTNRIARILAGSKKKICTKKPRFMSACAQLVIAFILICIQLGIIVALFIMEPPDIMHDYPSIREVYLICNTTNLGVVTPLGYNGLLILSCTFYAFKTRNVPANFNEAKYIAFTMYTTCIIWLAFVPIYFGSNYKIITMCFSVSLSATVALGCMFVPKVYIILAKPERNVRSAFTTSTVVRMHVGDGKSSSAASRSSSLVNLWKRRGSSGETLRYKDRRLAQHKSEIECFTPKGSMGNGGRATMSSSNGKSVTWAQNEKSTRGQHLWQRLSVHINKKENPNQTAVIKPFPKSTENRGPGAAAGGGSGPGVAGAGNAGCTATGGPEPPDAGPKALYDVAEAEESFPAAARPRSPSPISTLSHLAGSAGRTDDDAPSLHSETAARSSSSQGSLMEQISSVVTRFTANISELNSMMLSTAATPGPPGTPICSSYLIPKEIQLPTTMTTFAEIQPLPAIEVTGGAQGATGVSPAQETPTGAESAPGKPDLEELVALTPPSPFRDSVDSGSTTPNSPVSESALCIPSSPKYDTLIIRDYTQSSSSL
pIC50: −log10 of the molar value.
Measured Endpoint: pIC50

// lookup pIC50 for O=C(c1ccc(F)cc1)N1CCC[C@H](c2nc(-c3cc(F)c[nH]3)co2)C1 > 5.00

----------
molecular target: mGluR5 (Rattus norvegicus); construct: positive allosteric modulators of mGluR5 receptors in native preparations; endogenous in cells; experiment: mGluR5 assay on rat cultured cortical astrocytes (Ca2+ mobilization, FLIPR); conditions: in the presence of 300 nM glutamate
pEC50: −log10 of the molar value.
Measured Endpoint: pEC50

// lookup pEC50 for O=C(c1ccc(F)cc1)N1CCC[C@H](c2nc(-c3cc(F)c[nH]3)co2)C1 > 6.00

Data credit: patent US20100081690A1
